The reader will find reported dpm values listed item by item below.
# experiment description: Assay of chelate on carboxymethyl (CM) Sephadex column (chelate formation, charge)
# Type: physicochemical
# run conditions: Fraction 2: 1 ml sample then 3 ml 0.01M Tris pH 7.5 (eluate)
Answer with a number only, understood to be in dpm.

As a guide, the following entries are already answered.
> print(dat)
                                   compound  readout.value
1  O=C([O-])CN(CCN(CC(=O)[O-])CC(=O)[O-])CCN(CC(=O)[O-])CC(=O)[O-].[La+3]         489692
2  [Cl][Eu]([Cl])[Cl] [Europium chloride, reference compound]              0
3  O=C([O-])CN(CCN(CC(=O)[O-])CC(=O)[O-])CCN(CC(=O)[O-])CC(=O)[O-].[Eu+3]          22115
4  [Cl][Sm]([Cl])[Cl] [Samarium chloride, reference compound]              0
5  [Cl][La]([Cl])[Cl] [Lanthanum chloride, reference compound]              0

Next compound, dpm to be filled in.
Could you share which dpm value was measured for O=C([O-])CN(CCN(CC(=O)[O-])CC(=O)[O-])CCN(CC(=O)[O-])CC(=O)[O-].[Sm+3] ? 148208
